Tested on: MDA-MB-231 breast
Assay: NCI-60 one-dose screen, 48 h
Settings: 10 µM unless noted
Description: Cells are grown in 96 well plates and exposed to the test compound for 48 hours. Compounds are tested at a single concentration, which is 10^-5 M for most compounds. The reported endpoint is percent growth (GI% or GIPRCNT), where numbers from 0 - 100% represent growth inhibition, and numbers from -100% - 0 represent cell death. For example, a value of 40 represents 60% growth inhibition. A value of 0 means no net growth occurred over the course of the experiment. […]
Compounds without any hit were thinned out: in the full panel of roughly 83,000, 20% have a hit. Active and inactive are the calls of the source. Rule for the calls: active = growth percent below 10; inactive = the rest.
Permitted responses: active, inactive

{"compound": "CCN(CC)C(=O)C[N+](C)(C)CCOC(c1ccccc1)c1ccccc1", "classification": "inactive"}
{"compound": "COc1cnc2c(c1)C(=O)c1c-2n(CCCn2ccnc2)c(=O)c2cc(Cl)ccc12", "classification": "inactive"}
{"compound": "COc1ccc2c(CCCC(c3ccccc3)c3ccccc3)c3[n+](cc2c1OC)CCc1cc2c(cc1-3)OCO2", "classification": "active"}
{"compound": "CNC(=O)c1cccc2cc(Oc3ccnc4cc(OCC5(N)CC5)c(OC)cc34)ccc12", "classification": "inactive"}
{"compound": "CC(=O)c1cnc2ccc(-c3cc(Cl)c(O)c(Cl)c3)nc2c1NC1CCC(CN(C)C)CC1 (centres undefined)", "classification": "active"}
{"compound": "CC(C)c1cc(CNc2nc(Nc3cc(C4CC4)[nH]n3)cc(N3CCN(C)CC3)n2)on1", "classification": "active"}
{"compound": "O=C(Nc1ccc(N=Nc2ccccc2)cc1)c1cccc2ccccc12", "classification": "inactive"}
{"compound": "NC1(c2ccc(-c3nc4ccn5c(=O)[nH]nc5c4cc3-c3ccccc3)cc2)CCC1", "classification": "inactive"}
{"compound": "COc1cc2c(cc1OCCCCCCN1CCN(c3ncnc4ccccc34)CC1)N=CC1CCCN1C2=O (centres undefined)", "classification": "active"}
{"compound": "CO[C@@H](C)Cn1c(=O)n(C)c2cnc3ccc(-c4cncc(C(C)(C)O)c4)cc3c21", "classification": "active"}

Alright, here's another compound for you.
Prompt line: Hi, do you know how `CCCCn1c(C)nc2cc(Nc3nc(N4CCCCC4)nc4nc[nH]c34)ccc21` came out in this test?
Response line: inactive

###

System: NCI-H460 lung
Experiment: NCI-60 one-dose screen, 48 h (100 = growth as untreated, 0 = no growth, -100 = all killed)
Details: 10 µM unless noted
Procedure: Growth inhibition of the NCI-H460 human Non-Small Cell Lung tumor cell line is measured as a screen for anti-cancer activity. Cells are grown in 96 well plates and exposed to the test compound for 48 hours. Compounds are tested at a single concentration, which is 10^-5 M for most compounds. The reported endpoint is percent growth (GI% or GIPRCNT), where numbers from 0 - 100% represent growth inhibition, and numbers from -100% - 0 represent cell death. […]
About 83,000 compounds went through this panel and 20% of them were active in at least one assay; those are over-represented in the sample as a whole.
recorded-endpoint: growth (%)
// units = %; emit number, no label

Recorded growth, per entry:
{"compound": "COCCOc1cnc2ccn([C@H](C)c3nnc4c(F)cc(-c5cnn(C)c5)cn34)c(=O)c2c1", "subject-of-test": "NCI-H460 lung", "growth / %": 75.6}
{"compound": "Clc1ccc(Nc2nccc(Nc3ccc4[nH]ncc4c3)n2)cc1", "subject-of-test": "NCI-H460 lung", "growth / %": 41}
{"compound": "C/C(=N\\NC(=O)Cn1c(-c2ccc(S(C)(=O)=O)cc2)nc2ccccc21)c1ccc(Cl)cc1", "subject-of-test": "NCI-H460 lung", "growth / %": 97.3}
{"compound": "c1cn2cc(-c3ccc4cn[nH]c4c3)nc(Nc3ccc(N4CCOCC4)cc3)c2n1", "subject-of-test": "NCI-H460 lung", "growth / %": 41.7}
{"compound": "Cc1ccc(-n2nc(C(C)(C)C)cc2NC(=O)NCc2cc(F)ccc2Oc2ccc3c(cnn3CCO)c2)cc1", "subject-of-test": "NCI-H460 lung", "growth / %": 25.8}
{"compound": "O=C(Nc1ccc(C(=O)Nc2ccc(C3=NCCCN3)cc2)cc1)Nc1ccc(C2=NCCCN2)cc1", "subject-of-test": "NCI-H460 lung", "growth / %": 75}

Prompt line: For the compound COc1ccc(C2CC(=O)c3c(O)c(OC)c(OC)c(OC)c3O2)c(O)c1 (centres undefined) , what growth is on record?
Response line: 9.27

Prompt line: Then what about the compound `CN1CCN(c2nc(C3=C(c4c[nH]c5ccccc45)C(=O)NC3=O)c3ccccc3n2)CC1` ?
Response line: 87.5

Prompt line: Then what about the compound `COc1ccc(S(=O)(=O)N(C(C)=O)c2ccccc2/C=C/c2cc[n+]([O-])cc2)cc1` ?
Response line: 3.49

###

tested on: A498 renal; test: NCI-60 one-dose screen, 48 h (100 = growth as untreated, 0 = no growth, -100 = all killed); conditions: 10 µM unless noted
The panel holds about 83,000 compounds, 20% with a hit somewhere; the sample as a whole holds those more often.
recorded-endpoint: growth (%)
// units = %; emit number, no label

Recorded growth, per entry:
{"molecule": "O=C(COc1cccc(/C=C2\\Cc3ccc(Cl)cc3C2=O)c1)Nc1nccs1", "observed-result": 98.3}
{"molecule": "CN1CCN(c2nc(C3=C(c4c[nH]c5ccccc45)C(=O)NC3=O)c3ccccc3n2)CC1", "observed-result": 75.1}
{"molecule": "COC(=O)[C@@H](C)CNS(=O)(=O)N(c1cc(C(F)(F)F)cc(C(F)(F)F)c1)C1CCN(Cc2ccc(F)cc2)CC1", "observed-result": 66}
{"molecule": "N#CCNC(=O)c1ccc(-c2ccnc(Nc3ccc(N4CCOCC4)cc3)n2)cc1", "observed-result": -31.8}
{"molecule": "Cn1ccnc1C(=O)/C=C/c1ccc(CC(=O)Nc2ccc(S(F)(F)(F)(F)F)cc2)cc1", "observed-result": 13.5}
{"molecule": "Cc1nc(NC(=O)N2CCC[C@H]2C(N)=O)sc1-c1ccnc(C(C)(C)C(F)(F)F)c1", "observed-result": 1.67}

Prompt line: For the molecule C=CCCCC(=O)CCC(=O)OCC1O[C@@H](O[C@@H]2C(O)[C@@H](OC(C)=O)C(C)O[C@H]2O[C@H](CC=C)CCCCC)C(O)[C@@H](OC(=O)/C(C)=C/C)[C@@H]1OC(=O)/C=C/c1ccccc1 (some centres not stated) , what growth is on record?
Response line: 52.5

Prompt line: Then what about the molecule `Nc1ncnc2c1ccn2-c1cccc(NC(=O)c2ccc(N3CCOCC3)c(C(F)(F)F)c2)c1` ?
Response line: 63.3

###

Tested on: TK-10 renal
Experiment: NCI-60 one-dose screen, 48 h
Conditions: 10 µM unless noted
Protocol: Growth inhibition of the TK-10 human tumor cell line is measured as a screen for anti-cancer activity. Cells are grown in 96 well plates and exposed to the test compound for 48 hours. Compounds are tested at a single concentration, which is 10^-5 M for most compounds. The reported endpoint is percent growth (GI% or GIPRCNT), where numbers from 0 - 100% represent growth inhibition, and numbers from -100% - 0 represent cell death. For example, a value of 40 represents 60% growth inhibition. […]
Compounds without any hit were thinned out: in the full panel of roughly 83,000, 20% have a hit. Active and inactive are the calls of the source. How the source made its calls: active means growth percent below 10; inactive means the rest.
Permitted responses: class 1 = active, class 0 = inactive

{"test-smiles": "C[C@@H](Oc1cc(C(=O)Nc2ccc(C(=O)N3CCN(C)CC3)cc2)nnc1N)c1c(Cl)ccc(F)c1Cl", "classification": "class 0"}
{"test-smiles": "Cc1ncc(-c2ccnc(Nc3ccc(S(C)(=O)=O)cc3)n2)n1C(C)C", "classification": "class 1"}

Prompt line: Hi, do you know how `O=C(NO)c1ccc(Cn2c(=O)n(-c3ccccc3F)c(=O)c3ccccc32)cc1` came out in this test?
Response line: class 1

Prompt line: Then what about the molecule `CC[C@@H]1C(=O)N(C)c2cnc(Nc3ccc(C(=O)NC4CCN(C)CC4)cc3OC)nc2N1C1CCCC1` ?
Response line: class 0

Prompt line: Then what about the molecule `COc1cc2c(Oc3ccc(NC(=O)C4(C(=O)Nc5ccc(F)cc5)CC4)cc3F)ccnc2cc1OCCCN1CCOCC1` ?
Response line: class 1

Prompt line: Then what about the molecule `COc1ccc(OC)c(NC2=C(SCCc3ccccc3)C(=O)c3ccccc3C2=O)c1` ?
Response line: class 0

Prompt line: Then what about the molecule `O=C1/C(=C\c2cccc(OCCCCCOc3ccc(Cl)cc3)c2)N=C2SCCCN12` ?
Response line: class 0

Prompt line: Then what about the molecule `CC(=O)NCC(=O)N1[C@@H]2CC[C@H]1c1ccc(Nc3ncc(C(F)(F)F)c(NC4CCC4)n3)cc12` ?
Response line: class 0

Prompt line: Then what about the molecule `CCc1ccc(/C=C/c2ccc(O)c3ncccc23)[n+](C)c1` ?
Response line: class 0

Prompt line: Then what about the molecule `CN1CCC(CNc2ccc3ncc(-c4cccc(OC(F)(F)F)c4)n3n2)CC1` ?
Response line: class 1

Prompt line: Then what about the molecule `Cc1nc(-c2cn3c(n2)-c2ccc(-c4cnn(C(C)(C)C(N)=O)c4)cc2OCC3)n(C(C)C)n1` ?
Response line: class 1

Prompt line: Then what about the molecule `CCCCN1C(=O)c2cccc3c(-c4ccc5c(c4)ncn5C4CCCCC4)ccc(c23)C1=O` ?
Response line: class 0

Prompt line: Then what about the molecule `O=C(Cn1ccc2ccccc21)Nc1ccc(-c2nc3ccccc3s2)cc1` ?
Response line: class 0

Prompt line: Then what about the molecule `C/C(=C(/c1ccc(Cl)cc1)c1ccc(OCCN2CCCCC2)cc1)c1ccccc1` ?
Response line: class 0

Prompt line: Then what about the molecule `CS(=O)(=O)N1CCN(Cc2cc3nc(-c4cccc5[nH]ncc45)nc(N4CCOCC4)c3s2)CC1` ?
Response line: class 1

Prompt line: Then what about the molecule `CCN(CC)CCNc1ccc(N=Nc2cnc3ccccc3c2)c2ccccc12` ?
Response line: class 1

Prompt line: Then what about the molecule `Cn1c(Nc2ccc(C(F)(F)F)cc2)nc2cc(Oc3ccnc(-c4ncc(C(F)(F)F)[nH]4)c3)ccc21` ?
Response line: class 0

Prompt line: Then what about the molecule `O=C1NC(=O)C(c2cnc3ccccn23)=C1c1cn2c3c(cc(F)cc13)CN(C(=O)N1CCCCC1)CC2` ?
Response line: class 0

Prompt line: Then what about the molecule `Cc1cc(Nc2nc(N[C@@H](C)c3ncc(F)cn3)ncc2Cl)n[nH]1` ?
Response line: class 0
